Source listed as patent US4535089A.

Test system: serum triglyceride
Assay: Hypolipidemic activity: decrease in serum triglyceride
Type: in vivo
Details: 50 mg % in diet, one week, male SD rats
Returns: string. Value is 1.0 if measured Decrease (%) in serum triglyceride is below 50%, and 0.0 if it is greater than or equal to it.

> print(dat)
                                    compound      targetorsystem  cat
 1          CCOC(=O)Cc1nc(-c2ccc(Cl)cc2)oc1C  serum triglyceride  1.0
 2      CCCCCc1oc(-c2ccc(Cl)cc2)nc1CC(=O)OCC  serum triglyceride  0.0
 3        CC(C)c1oc(-c2ccc(Cl)cc2)nc1CC(=O)O  serum triglyceride  1.0
 4        CCCCCc1oc(-c2ccc(Cl)cc2)nc1CC(=O)O  serum triglyceride  0.0
 5      CCOC(=O)Cc1nc(-c2ccc(F)cc2)oc1CC(C)C  serum triglyceride  0.0
 6      CCOC(=O)Cc1nc(-c2ccc(Cl)cc2)oc1C(C)C  serum triglyceride  0.0
 7            Cc1oc(-c2ccc(Cl)cc2)nc1CC(=O)O  serum triglyceride  1.0
 8  CCOC(=O)C(C)(C)Oc1ccc(Cl)cc1 [Clofibrate, reference compound]  serum triglyceride  1.0
 9         CC(C)c1oc(-c2ccc(F)cc2)nc1CC(=O)O  serum triglyceride  1.0
10       CCOC(=O)Cc1nc(-c2ccc(F)cc2)oc1C(C)C  serum triglyceride  1.0
